The compounds below each have a reported IC50 tested on Cathepsin B (Homo sapiens, UniProt P07858); the values come from various publications.

Examples with answers:
CC(C)[C@@H]1NC(=O)/C=C/[C@@H](NC(=O)[C@@H](NC(=O)CNC(=O)OC(C)(C)C)C(C)C)COC(=O)[C@H](Cc2ccc(O)cc2)NC1=O < 3 µM
COC[C@H]1C[C@@H](NC(=O)c2nc(-c3cc(C#N)ccc3OC3CC3)co2)CN1C#N > 300 µM
Cc1c(Cl)cc(NCc2cccc(Oc3ccccc3)c2)c(O)c1Cl 10 to 50 µM
CC(C)C[C@H](NC(=O)OC(C)(C)C)C(=O)N[C@@H]1/C=C/C(=O)N[C@@H](C(C)C)C(=O)N[C@@H](Cc2ccc(O)cc2)C(=O)OC1 < 3 µM
CCCCCC/C=C\CC(=O)NCC(=O)N[C@H](C(=O)N[C@@H]1/C=C/C(=O)N[C@@H](C(C)C)C(=O)N[C@@H](Cc2ccc(O)cc2)C(=O)OC1)C(C)C < 3 µM

// next entry
Recall the reported IC50 of `CNC(=O)O[C@H]1CCc2ccc(N3CCN(C4COC4)CC3)cc2[C@@H]1NC(=O)c1ccc(F)cc1` on Cathepsin B (Homo sapiens, UniProt P07858) and write it down.
~94 µM

====

The compounds below each have a reported IC50 tested on Cathepsin B (Homo sapiens, UniProt P07858); the values come from various publications.

Examples with answers:
CC(C)[C@@H]1NC(=O)/C=C/[C@@H](NC(=O)OC(C)(C)C)COC(=O)[C@H](C)NC1=O 3 to 10 µM
COc1ccc(C#N)cc1-c1cnc(C(=O)N[C@@H]2C[C@@H](C)N(C#N)C2)o1 > 300 µM
COC(C)(C)C(=O)N[C@@H](CCCNC(=N)N)C(=O)COC(C(F)(F)F)C(F)(F)F > 10 µM
N#CC1(NC(=O)C2(NC(=O)c3cc4ccc(-c5ccc(S(=O)(=O)N6CCOCC6)cc5)cc4o3)CCC(F)(F)CC2)CC1 > 10 µM
CC(C)[C@@H]1NC(=O)/C=C/[C@@H](NC(=O)[C@H](C)NC(=O)OC(C)(C)C)COC(=O)[C@H](Cc2ccc(O)cc2)NC1=O < 3 µM
CC(C)[C@@H]1NC(=O)/C=C/[C@@H](NC(=O)[C@@H](NC(=O)[C@H](Cc2ccc(O)cc2)NC(=O)OC(C)(C)C)C(C)C)COC(=O)[C@H](C)NC1=O < 3 µM
CC(C)[C@@H]1NC(=O)/C=C/[C@@H](NC(=O)CNC(=O)[C@H](Cc2ccc(O)cc2)NC(=O)OC(C)(C)C)COC(=O)[C@H](Cc2ccc(O)cc2)NC1=O < 3 µM

// next entry
Recall the reported IC50 of `CC(C)[C@@H]1NC(=O)/C=C/[C@@H](NC(=O)OC(C)(C)C)COC(=O)[C@H](Cc2ccc(O)cc2)NC1=O` on Cathepsin B (Homo sapiens, UniProt P07858) and write it down.
< 3 µM
